Tested on: MDA-MB-468 breast
Experiment: NCI-60 one-dose screen, 48 h
Details: 10 µM unless noted
This is part of a sample that, as a whole, favours compounds with a hit. Of some 83,000 tested, about 20% had one in any assay. Active and inactive are the calls of the source. Rule for the calls: active = growth percent below 10; inactive = the rest.
Give one outcome, nothing more. List: true (1) for active, false (0) for inactive

>  <Compound>
CCCCCCCCCCCCCCCCN=C(CC(=O)O)C(=O)O

>  <Assigned Category>
false (0)

$$$$
>  <Compound>
COc1cc(Cn2cc3c(c2)-c2onc(CN4CCOCC4)c2CC3)cc(OC)c1OC

>  <Assigned Category>
false (0)

$$$$
>  <Compound>
COc1ccc2sc3c(NCCCN(C)C)nc4ccccc4c3c(=O)c2c1

>  <Assigned Category>
false (0)

$$$$

How was `COc1cc(C(=O)c2cc(C)c3[nH]c4ccc(C)cc4c3c2C)cc(OC)c1OC` classified in this test? true (1)

How was `COc1ccc(-c2cc(-c3cccnc3)nc3sc4c(=O)[nH]c(-c5ccc(Cl)cc5)nc4c23)cc1OC` classified in this test? false (0)

How was `Cc1ccc(NC(=O)c2sc3nc4c(cc3c2N)C(=O)CCC4)cc1Cl` classified in this test? false (0)

How was `COc1ccc(Nc2nc(NCCNc3ccnc4cc(Cl)ccc34)nc(N3CCOCC3)n2)cc1` classified in this test? false (0)

How was `COc1cc(/C=C2/Oc3cc4occc4c(OC)c3C2=O)ccc1OCC(=O)Nc1ccncc1` classified in this test? false (0)

How was `O=C(N=Nc1c(O)[nH]c2ccccc12)c1cc(-c2ccccc2)on1` classified in this test? false (0)

How was `Nc1nc2cc(O)ccc2n2cc3c(F)cccc3c12` classified in this test? false (0)

How was `O=C1[C@H]2Cc3c([nH]c4ccccc34)[C@@H](c3c(Cl)cccc3Cl)N2C(=O)CN1C1CCN(Cc2ccccc2)CC1` classified in this test? false (0)

###

System: MOLT-4 leukemia
Experiment: NCI-60 one-dose screen, 48 h (100 = growth as untreated, 0 = no growth, -100 = all killed)
Settings: 10 µM
Compounds without any hit were thinned out: in the full panel of roughly 83,000, 20% have a hit.
Kindly state growth for each of the entries shown.
Answers are plain numbers, in %.

Example entries and their recorded answers appear below.
>  <Compound>
O=C1NC(=S)S/C1=C\c1cn(-c2ccccc2)nc1-c1ccc([N+](=O)[O-])cc1

>  <growth [%]>
17

$$$$
>  <Compound>
COc1ccccc1-n1cc(C#N)c(N)c1C(=O)c1ccc(Cl)cc1Cl

>  <growth [%]>
20.3

$$$$
>  <Compound>
O=C(Nc1ccc(OCc2ccc(F)cc2)cc1)Nc1ccc(Cl)c(C(F)(F)F)c1

>  <growth [%]>
6.64

$$$$
>  <Compound>
COc1ccc2[nH]cc(-c3nc(N)nnc3-c3cn(C)c4ncc(Br)cc34)c2c1

>  <growth [%]>
2.27

$$$$
>  <Compound>
O=C1S/C(=C\c2ccc([N+](=O)[O-])cc2)C(=O)N1CCN1CCCCC1

>  <growth [%]>
101

$$$$

Please go through the list and note growth for each compound.
1. CCn1c(SCC(=O)Nc2ccc(-c3nc4ccccc4[nH]3)cc2)nc2ccccc2c1=O
2. O=[N+]([O-])c1cccc(-c2nnc3c(/C=C/c4ccccc4O)nc4ccccc4n23)c1
3. O=C1NC2C=CC=CC2/C1=C1/SC(=S)N(C2CC(=O)N(c3ccc(Br)cc3)C2=O)C1=O (centres undefined)
4. COc1ccc(Cc2nn(CC(=O)N/N=C/c3ccc(Br)cc3)c(=O)c3c(C)noc23)cc1

1: 3.3; 2: 38.7; 3: 70.5; 4: 63.2
